Origin of the recorded values: the nanobody polyreactivity screen of Harvey et al. (2022)

- protocol: yeast display, Sf9 membrane polyspecificity reagent, FACS + sequencing; frameworks hold sequencing errors
measurement.type: polyreactivity (PSR sort gate)

Examples from the recorded data:
| record.sequence | polyreactivity (PSR sort gate) |
| --- | --- |
| QDQLVESGGGFVQAGGSLRLSCAASGITFPLYALGRYRQPPGKERELVAAISRNGGRTYYADSVKVRFTMSRDNAKNTVYLQMNSMKPEDTAVYYCAKVSRGSVSSPPDDYWGQGTQVTVSS | high polyreactivity |
| QVQLVESGGGLVQEGGSLRLSCAASGSNLKGYAMGWYRQAPGKERELVARITRGGSTNYADSVKGRFTISRDNAKNTVYLQRNSLKPEDTAVYYCNKSGRWSARSASREVGDDYWGQGTQVTVSS | low polyreactivity |
| QVQLVESGGGLVQAGGSLRLSCAASGRIFYGNALGWYRHAPGKERELVATISSSGGRTTYADSVKGRFTISRDNAKNTVYLPMNSLKPEDTAVYYCAAQGYWTGYDYWGQGTQVTVSS | high polyreactivity |
| QVQLVESGGGLVQAGGSLRLSCAASRSTFSGNAMGWYIQAPGKERELVATITSDGTTYYADSVKGRFTISRDNAKNNVYLLMNSLKPEDTAVYYCAARYTAYRDDYWGQGTHVTVSS | high polyreactivity |
| QVQLVESGGGLVQAGGSLRLSCAASGSTFVGYAMGWYRQAPGKEREFVAAITRGGSTNYADSVKGRFTISRDNAKNTVYLQMNSLKPEDTAVYYCAARDRREGFNFDYWGQGTQVTVSS | low polyreactivity |
| QVKLVESGGGLVQAGGSLRLSCAPSGFTFFTYAMGWYRQAPGKERVLVAAITSGGSTNYADSVKGRFTISRDNAKNTVDLQMNSLKPEDTAVYYCAKLAYSDATTVYGYQRSDYWGQGTQVTVSS | low polyreactivity |
| QDQLVESGGGLVQAGGSLRLSCAASGSTFKKYALGWYRQAPGKERELVAAITGSGGRTYYADSVKGRFTISRDNAKNTVYLQMNSLKPEDTAVYYCAARRYLSGGYYYCGQGTQVTVSS | high polyreactivity |
| QVQHVESGGGLVQAGGSLRLSCAASGRTSYTNAMGWSRPAPGKERELVAAINYSGGSTYYADSVKGRYTISRDNAKNTVYLQMNSLKPEDTAVYYCAAERYYWYTEMGYWGQGTQVTVSS | high polyreactivity |
| QVQLVESGGGLVQAGGSLRLSCAASGIIIQRNAMGWYRQAPGKERELVAAISIGGGSTYADSVKGRFTISRDNAMNTVYLQMNSLKPEDTAVYYCAADYSGASVLMDYWGQGTQVTVSS | low polyreactivity |
| QVQLVESGGGLDQAGGSLRLSCAASGRIFVIIAMGWYRQAPGKERELVAAISWTGDTTYYADSVKGRFTISRDNAKNTVYLQMNSLKPEDTAVYYCAAEGYYIQSRTYSSDRYDYWGQGTQVTVSS | low polyreactivity |

stdin: For the sequence shown here, QVQLVESGGGLVQAGGSLRLSCAASGLTFDYYAMGWYRQAPGKERELVAAIDWSGGSTYYADSVKGRFTISRDNAKNTVYLQMNSLKPEDSAVYYCATESDDSGMDYWGQGTQVTVSS , give the reported polyreactivity (PSR sort gate).
stdout: low polyreactivity

====

- protocol: yeast display, Sf9 membrane polyspecificity reagent, FACS + sequencing; frameworks hold sequencing errors

| record.sequence | polyreactivity (PSR sort gate) |
| --- | --- |
| QVQLVESGGGLVQAGGSLRLSCAASGGTFFVYMGGYRQAPGNERELVADISGSGGGTYYADSVKGRFTISRDNAKNTVYLQMNSLKPEDTAVYYCATDVPTGIIRMYWGQGTQVTVSS | low polyreactivity |
| QVQLVESGGGLVQAGGSLRLSCAASGNTFRWNAMGWYRQAPGKERELVAGISIDDGSNYADSVKGRFTISRDNAKKTVYLQMNSLTPEDTAVYDCNRDWALYVFGRHYHAYYSWGQGTHVTVSS | low polyreactivity |
| QVKLVESGGGLVQSGGSLRLTSAASGSTFPRYAMGWYRQAPGKEREFVAVIWSGGSTYYADSVKGRLTISRDNAKNTVYLQMNSLKPEDTAVYYCAAEYHTLSLDSGYATHDYWGQGTQVTVSS | low polyreactivity |
